Origin of measurements: patent US8372869B2

test system: Escherichia coli strain DH5(alpha) (Gram-negative); assay: Bacterial growth inhibition by light-scattering at 550 nm, Escherichia coli; type: cell-based; conditions: read-out: IC50 towards Escherichia coli cells (growth inhibition)
pIC50: −log10 of the molar value.
observable: pIC50

### Prompt So what's the measured pIC50 for this one? O=C1c2ccccc2[Se](=O)N1c1ccccc1 (stereo not shown) [ebselen se-oxide]
### Response ~4.77
